# tested.target: Ubiquitin carboxyl-terminal hydrolase 28 (Homo sapiens) (UniProt Q96RU2)
# Sequence (Q96RU2 whole entry, looked up): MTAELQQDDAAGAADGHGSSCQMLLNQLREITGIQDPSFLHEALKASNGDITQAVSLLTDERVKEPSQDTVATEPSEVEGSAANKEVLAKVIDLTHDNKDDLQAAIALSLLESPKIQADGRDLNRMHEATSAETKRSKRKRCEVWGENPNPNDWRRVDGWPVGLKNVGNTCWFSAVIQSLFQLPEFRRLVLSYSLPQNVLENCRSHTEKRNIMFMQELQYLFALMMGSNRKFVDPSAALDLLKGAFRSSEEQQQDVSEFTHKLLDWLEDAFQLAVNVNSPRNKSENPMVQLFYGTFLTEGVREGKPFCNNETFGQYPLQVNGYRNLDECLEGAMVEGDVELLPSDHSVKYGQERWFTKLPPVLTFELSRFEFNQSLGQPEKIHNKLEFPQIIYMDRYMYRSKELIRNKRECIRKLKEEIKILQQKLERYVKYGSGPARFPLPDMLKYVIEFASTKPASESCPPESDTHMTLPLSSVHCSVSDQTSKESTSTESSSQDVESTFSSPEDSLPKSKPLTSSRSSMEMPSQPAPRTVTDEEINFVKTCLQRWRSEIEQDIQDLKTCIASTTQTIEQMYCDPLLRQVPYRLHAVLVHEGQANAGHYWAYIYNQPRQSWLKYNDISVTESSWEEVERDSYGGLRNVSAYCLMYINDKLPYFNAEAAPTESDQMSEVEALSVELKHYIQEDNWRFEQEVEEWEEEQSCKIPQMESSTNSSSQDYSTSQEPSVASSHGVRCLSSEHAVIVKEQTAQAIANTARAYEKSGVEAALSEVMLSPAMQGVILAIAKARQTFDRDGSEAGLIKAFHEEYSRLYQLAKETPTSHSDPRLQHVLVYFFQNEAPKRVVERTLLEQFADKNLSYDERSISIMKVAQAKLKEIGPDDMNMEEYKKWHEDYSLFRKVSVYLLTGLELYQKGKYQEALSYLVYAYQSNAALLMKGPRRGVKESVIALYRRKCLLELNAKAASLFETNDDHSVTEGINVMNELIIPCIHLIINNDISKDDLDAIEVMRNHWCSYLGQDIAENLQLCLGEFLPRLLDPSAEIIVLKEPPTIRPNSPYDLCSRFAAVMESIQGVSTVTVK
# method.description: inhibitors of human USP28 deubiquitinase (AID 1645857)
# condition.set: purified USP28, Ub-rhodamine cleavage fluorescence, 30 min; at 25 µM; hits give high values
About 1,400 (3%) of roughly 47,000 compounds were called active. The entries come from a sample that favours actives as a whole.
The following compounds are shown together with reported inhibition values.

compound: COc1cc(N2CC[C@@H]3[C@@H]2CCN3Cc2cccnc2)ncn1
inhibition / %: -13.3
//
compound: CC(C)(C)n1cc(C(=O)NCC(=O)Nc2ccc(Br)cc2)cn1
inhibition / %: 1.73
//
compound: Cc1noc(C)c1CN1CCO[C@H]2C(Cn3cccn3)CC[C@@H]21 (some centres undefined)
inhibition / %: -2.14
//
compound: O=C1CSC(c2ccc(F)cc2)c2c(-c3ccccc3)nn(-c3ccccc3)c2N1 (centres undefined)
inhibition / %: 35.2
